Subject Of Test: T1, PUF4 RNA-binding domain (Saccharomyces cerevisiae, UniProt P25339 537-888)
T1 sequence: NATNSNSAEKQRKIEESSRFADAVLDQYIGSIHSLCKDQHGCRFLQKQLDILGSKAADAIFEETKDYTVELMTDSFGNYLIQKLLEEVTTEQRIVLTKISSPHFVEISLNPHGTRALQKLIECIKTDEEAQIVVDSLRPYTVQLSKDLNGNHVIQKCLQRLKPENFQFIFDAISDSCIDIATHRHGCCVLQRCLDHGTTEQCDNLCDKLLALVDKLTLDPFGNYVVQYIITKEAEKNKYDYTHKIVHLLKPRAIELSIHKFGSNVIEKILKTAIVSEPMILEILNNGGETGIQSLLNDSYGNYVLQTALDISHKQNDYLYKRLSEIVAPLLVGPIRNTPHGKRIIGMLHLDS
Assay Comment: Mg; RNA-MaP; 20 mM Na-HEPES pH 7.4, 30 mM KOAc, 0.75 mM MgCl2, 0.1% Tween-20, 5% glycerol, 0.1 mg/mL BSA, 2 mM DTT; 25 C; 0.0125-409.6 nM protein
Experimental Context: tags: N-His6-TEV cleaved; C-SNAP kept, Cy3B-labelled; label: tethered on chip by stalled RNA polymerase
Could you please report measured Kd for the items listed next?
Give bare numbers, in µM.

For every item below, please supply its Kd.
1. UCUCUUUCUCUGUAUUAUUAUCUCUU (ssRNA) [Ie_S1_P5E.1_K5.1_C5.1_H5.1_[+1CTCT]_A5.1_F5.1_T5.1]
2. Id_ii_S2_P3E.2_K3.1_C3.2_[T-1A]_H3.1_A3.1_F3.1_T3.2_[T9C]_[A10T] (ssRNA) RNA: UUUGAUUAAUAUGAUAUCGUUCUUUCUCAUGUAUAUACUUUCUUUCUCGAUAUCAUAUUAAUCUUU
3. UCUCUUCGUAUUAUAAUCUCUU (ssRNA) [Ib_S1_P5E.1_K5.1_C5.1_H5.1_[T1C]_A5.1_F5.1_[T9A]_T5.1]
4. UCUCUUUGUAACUGACUCUCUU (ssRNA) [Ic_S1_P5E.1_K5.1_C5.1_H5.1_A5.1_[T5A]_[T6C]_[A7T]_F5.1_[T8G]_[T9A]_[A10C]_T5.1]
5. Ib_S2_P5E.1_K5.1_C5.1_H5.1_[G2A]_A5.1_[T6C]_F5.1_T5.1 (ssRNA) RNA: UUUGAUUAAUAUGAUAUCGUUCUUUCUUAUAUCAUUAUUCUUUCUCGAUAUCAUAUUAAUCUUU
6. UCUCUUUGUAUUGCCUUCUCUU (ssRNA) [Ic_S1_P5E.1_K5.1_C5.1_H5.1_A5.1_[A7G]_F5.1_[T8C]_[T9C]_[A10T]_T5.1]
7. UCUCUUUGUACCUUGUCUCUU (ssRNA) [Ic_S1_P4E.1_K4.1_C4.1_H4.1_A4.1_[T5C]_[A6C]_F4.1_[A9G]_T4.1]
8. Ic_S2_P4E.1_K4.1_C4.1_H4.1_A4.1_[T5C]_F4.1_[A9C]_T4.1 (ssRNA) RNA: UUUGAUUAAUAUGAUAUCGUUCUUUCUUGUACAUUCUUCUUUCUCGAUAUCAUAUUAAUCUUU

1: 0.00773; 2: 0.0052; 3: 0.691; 4: 0.448; 5: 0.353; 6: 0.652; 7: 0.0273; 8: 0.00272

For every item below, please supply its Kd.
1. ACAAACAAUAUAUAUAUUACAAAC (ssRNA) [Id_ii_S3_P3E.3_K3.2_C3.2_[C-2A]_[T-1A]_H3.2_A3.1_F3.1_T3.2_[A10T]]
2. Ic_S2_P5E.1_K5.1_C5.1_H5.1_A5.1_[T5A]_[T6C]_[A7T]_F5.1_[T8A]_[T9A]_T5.1 (ssRNA) RNA: UUUGAUUAAUAUGAUAUCGUUCUUUCUUGUAACUAAAUUCUUUCUCGAUAUCAUAUUAAUCUUU
3. Ic_S2_P4E.1_K4.1_C4.1_H4.1_A4.1_[T5G]_[A6C]_F4.1_[T8A]_T4.1 (ssRNA) RNA: UUUGAUUAAUAUGAUAUCGUUCUUUCUUGUAGCUAAUUCUUUCUCGAUAUCAUAUUAAUCUUU

1. 0.094
2. 0.129
3. 0.111
